The compounds below each have a reported pIC50 tested on Leucine-rich repeat serine/threonine-protein kinase 2 (Homo sapiens, UniProt Q5S007); the values come from various publications.
pIC50: −log10 of the molar value.

Sample records with pIC50:
compound	pIC50
Cc1n[nH]c2ncc(-c3cncc(N4CCC(F)(F)C4)n3)cc12	< 6.30
Cc1n[nH]c2ncc(-c3cnccn3)cc12	< 6.00
CC1(Oc2ccc3[nH]nc(-c4cc(N5CCN(C(=O)CCOCCNc6cccc7c6C(=O)N(C6CCC(=O)NC6=O)C7=O)CC5)ncn4)c3c2)CC1 (stereo not shown)	8.80

Now consider a different compound.
Find pIC50 (Leucine-rich repeat serine/threonine-protein kinase 2 (Homo sapiens, UniProt Q5S007)) for the entry O=C(c1ccc(Nc2cc(NC3CCCCC3)c3c(C(F)(F)F)c[nH]c3n2)c2c1OCCO2)N1CCOCC1
6.00 to 6.52
